test system: MDA-MB-435
Respond using exactly one of the listed classes: active, inactive

molecule | test target | class
O=C(NC1CCN(Cc2ccccc2)CC1)c1cc(-c2ccncc2)nc2ccc(Cl)cc12 | MDA-MB-435 | inactive
COc1ccc(C2CC(c3cc(OC)c(OC)c(OC)c3)=NO2)cc1OCCCCOc1cc2c(cc1OC)C(=O)N1CCC[C@H]1C=N2 (some centres not stated) | MDA-MB-435 | inactive
Cn1cc(-c2ccc3c(Nc4cccc(NC(=O)Nc5cccc(F)c5)c4)ncnc3c2)cn1 | MDA-MB-435 | inactive

INPUT: Which outcome was assigned to Fc1ccc2[nH]cc(-c3nc(-c4c[nH]c5ncccc45)cs3)c2c1 in this test?
OUTPUT: inactive

INPUT: Which outcome was assigned to N#Cc1c(-c2ccccc2)nc(SCC2CO2)nc1N1CCOCC1 (configuration not stated) in this test?
OUTPUT: inactive

INPUT: Which outcome was assigned to O=C1c2ccccc2-c2c1c1ccccc1c(=O)n2CCCCNCCCn1c2c(c3ccccc3c1=O)C(=O)c1ccccc1-2 in this test?
OUTPUT: inactive

INPUT: Which outcome was assigned to NCCNc1c2c(c(NCCN)c3c(CO)c[nH]c13)C(=O)c1ccccc1C2=O in this test?
OUTPUT: inactive
